Catalogue of stoichiometry N values
target: the molecule itself; assay: SEC; analytical gel filtration on Superdex 200 of each MBP-fused variant alone, as described in ref. 19
Give the value as a plain number.

Look over these answered cases.
Protein	stoichiometry N
MBP-TtProDH ΔABC (MBP-TtProDH lacking helices αA, αB and αC) (domain or fragment, Thermus thermophilus, UniProt Q72IB8 38-287, looked up, Proline dehydrogenase (TtProDH), Thermus thermophilus, lacking the whole N-terminal arm; PDB 5M42)'; the construct encodes up to residue 309, but the observed species is C-terminally truncated, cleaved before Arg288 (residues 288-309 removed); The difference of the predicted masses of ΔAB and ΔABC (75.5 against 74.4 kDa) fits a start at G38; not shown: MBP, N-terminal, kept) GETLEEALKAAEALEREGVHAILDLLGEMVRTEEEARAFQRGLLELVWALAGKPWPKYISLKLTQLGLDLSEDLALALLREVLREAEPRGVFVRLDMEDSPRVEATLRLYRALREEGFSQVGIVLQSYLYRTEKDLLDLLPYRPNLRLVKGAYREPKEVAFPDKRLIDAEYLHLGKLALKEGLYVAFATHDPRIIAELKRYTEAMGIPRSRFEFQFLYGVRPEEQRRLAREGYTVRAYVPYGRDWYPYLT	2
MBP-TtProDH ΔAB Y35F (domain or fragment, Thermus thermophilus, Proline dehydrogenase (TtProDH), Thermus thermophilus, lacking helices αA and αB, with Y35F in helix αC; C-terminal tail of TtProDH (part of helix α8), residues 288-309 as printed; Identical subunits by denaturing MS; not shown: MBP, N-terminal, kept) KGLVRRFVAGETLEEALKAAEALEREGVHAILDLLGEMVRTEEEARAFQRGLLELVWALAGKPWPKYISLKLTQLGLDLSEDLALALLREVLREAEPRGVFVRLDMEDSPRVEATLRLYRALREEGFSQVGIVLQSYLYRTEKDLLDLLPYRPNLRLVKGAYREPKEVAFPDKRLIDAEYLHLGKLALKEGLYVAFATHDPRIIAELKRYTEAMGIPRSRFEFQFLYGVRPEEQRRLAREGYTVRAYVPYGRDWYPYLTRRIAERPENLLLVLRSLVSGLE	4

stoichiometry N reported for this protein MBP-TtProDH ΔA (MBP-TtProDH lacking helix αA) (domain or fragment, Thermus thermophilus, Proline dehydrogenase (TtProDH), Thermus thermophilus, lacking helix αA; C-terminal tail of TtProDH (part of helix α8), residues 288-309 as printed; Cloned with EcoRI and HindIII into pBAD-MBP; not shown: MBP, N-terminal, kept) QVERLIKHRAKGLVRRYVAGETLEEALKAAEALEREGVHAILDLLGEMVRTEEEARAFQRGLLELVWALAGKPWPKYISLKLTQLGLDLSEDLALALLREVLREAEPRGVFVRLDMEDSPRVEATLRLYRALREEGFSQVGIVLQSYLYRTEKDLLDLLPYRPNLRLVKGAYREPKEVAFPDKRLIDAEYLHLGKLALKEGLYVAFATHDPRIIAELKRYTEAMGIPRSRFEFQFLYGVRPEEQRRLAREGYTVRAYVPYGRDWYPYLTRRIAERPENLLLVLRSLVSGLE : 4

stoichiometry N reported for this protein MBP-TtProDH ΔAB (MBP-TtProDH lacking helices αA and αB) (domain or fragment, Thermus thermophilus, Proline dehydrogenase (TtProDH), Thermus thermophilus, lacking helices αA and αB; C-terminal tail of TtProDH (part of helix α8), residues 288-309 as printed; not shown: MBP, N-terminal, kept) KGLVRRYVAGETLEEALKAAEALEREGVHAILDLLGEMVRTEEEARAFQRGLLELVWALAGKPWPKYISLKLTQLGLDLSEDLALALLREVLREAEPRGVFVRLDMEDSPRVEATLRLYRALREEGFSQVGIVLQSYLYRTEKDLLDLLPYRPNLRLVKGAYREPKEVAFPDKRLIDAEYLHLGKLALKEGLYVAFATHDPRIIAELKRYTEAMGIPRSRFEFQFLYGVRPEEQRRLAREGYTVRAYVPYGRDWYPYLTRRIAERPENLLLVLRSLVSGLE : 4

The measurements presented in this section are drawn from paper PMC6017737.
